Hey, just so you know, these numbers are from PubChem BioAssay (NCI).

Attribute: TGI
Test system: TK-10 renal
Measurement notes: NCI tumour cell line growth inhibition, 48 h

CCC(C)Cn1c(C)nc2c1C(=O)c1ccccc1C2=O (centres undefined) :: > 100 µM

Problem: Sample COC1OC2COC(c3ccccc3)OC2C(OC(=S)c2ccccc2)C1O (centres undefined) — what was its TGI?
Result: > 100 µM

Problem: Next: COc1ccc(Cn2nc(OCc3ccccc3)c3cc([N+](=O)[O-])ccc32)cc1
Result: > 100 µM

Problem: Next: C/C(=C\c1ccccc1)n1c(=O)cc(C)n1C
Result: > 100 µM

Problem: Next: CC(C)(CO)Nc1c(O)c2c(c(O)c1Cl)C(=O)C=CC2=O
Result: 3.36 µM
